# assay.info: In vitro metabolism: disappearance of parent compound in dog liver microsomes
# Assay type: in vitro ADME
# protocol.conditions: 5 uM compound, 30 minutes 37° C.
reported.endpoint: Dog % rem. 30′ (%)

compound=COc1nc(OCCO)nc(OC)c1NC(=O)c1ccc(Cc2cc3c(cc2C)C(C)(C)OC3(C)C)o1 reported_endpoint="Dog % rem. 30′" measurement=49
compound=COc1nc(NCCN2CCCCC2)nc(OC)c1NC(=O)c1ccc(Cc2cc3c(cc2C)C(C)(C)OC3(C)C)o1 reported_endpoint="Dog % rem. 30′" measurement=77

(a) COc1nc(Nc2ccccc2)nc(OC)c1NC(=O)c1ccc(Cc2cc3c(cc2C)C(C)(C)OC3(C)C)o1 [Example D1]
(b) COc1nc(N(C)C)nc(OC)c1NC(=O)c1ccc(Cc2cc3c(cc2C)C(C)(C)CCC3(C)C)o1
Query block: Would you kindly point out which of a and b has the smaller Dog % rem. 30′ figure? I would appreciate it if you answered with the label of your choice.
Result block: b

(a) CNc1nc(OC)c(NC(=O)c2ccc(Cc3cc4c(cc3C)C(C)(C)CCC4(C)C)o2)c(OC)n1
(b) COCCOc1nc(OC)c(NC(=O)c2ccc(Cc3cc4c(cc3C)CCCC4(C)C)o2)c(OC)n1 [Example E1]
Query block: For the two items a and b , which reports the higher Dog % rem. 30′ value? I would appreciate it if you answered with the label of your choice.
Result block: b

(1) COc1nc(N(CCCN)CCCN)nc(OC)c1NC(=O)c1ccc(Cc2cc3c(cc2C)C(C)(C)OC3(C)C)o1
(2) COc1nc(N(CCCN2CCCCC2)CCCN2CCCCC2)nc(OC)c1NC(=O)c1ccc(Cc2cc3c(cc2C)C(C)(C)OC3(C)C)o1
(3) COc1nc(NCCCN2CCOCC2)nc(OC)c1NC(=O)c1ccc(Cc2cc3c(cc2C)C(C)(C)CCC3(C)C)o1
Query block: Sort the compounds on Dog % rem. 30′; start with the lowest figure. Please list the labels in the order you were asked to rank them.
Result block: 3, 2, 1

(1) COc1nc(NCCNCCN)nc(OC)c1NC(=O)c1ccc(Cc2cc3c(cc2C)C(C)(C)OC3(C)C)o1
(2) COc1nc(NCCCN(C)C)nc(OC)c1NC(=O)c1ccc(Cc2cc3c(cc2C)C(C)(C)OC3(C)C)o1
(3) COc1nc(OC)c(NC(=O)c2ccc(Cc3cc4c(cc3C)C(C)(C)OC4(C)C)o2)c(OC)n1
Query block: Sort the compounds on Dog % rem. 30′; start with the lowest figure. Please list the labels in the order you were asked to rank them.
Result block: 3, 1, 2
(3: 22%, 1: 59%, 2: 100%)

(P) COc1nc(NCCCCN(C)C)nc(OC)c1NC(=O)c1ccc(Cc2cc3c(cc2C)C(C)(C)OC3(C)C)o1
(Q) COc1nc(NCCCN2CCN(CCCN)CC2)nc(OC)c1NC(=O)c1ccc(Cc2cc3c(cc2C)C(C)(C)OC3(C)C)o1
Query block: Would you kindly point out which of P and Q has the smaller Dog % rem. 30′ figure? I would appreciate it if you answered with the label of your choice.
Result block: P
